# measured_target: wild type hGH (Homo sapiens)
# assay_method_text: Binding capacity for wild type hGH of ligands synthesized on Fractogel Amino (1 mL columns)
# assay_conditions: ligand on Fractogel Amino; load 5 mg/mL hGH in 25 mM Tris-HCl pH 7.50, 0.5 mL/min; elution gradient 1M NaCl/25 mM Tris pH 7.5
List of Measured binding capacity (mg hGH/mL resin) values.
readout: Measured binding capacity (mg hGH/mL resin)

compound	value_measured
Cc1nn(-c2ccccc2)nc1C(=O)NC[C@H](NC(=O)[C@H](Cc1ccccc1)NC(=O)[C@@H](N)Cc1c[nH]c2ccccc12)C(=O)O [L5]	2
CC[C@@H](C)[C@H](NC(=O)[C@@H](N)Cc1c[nH]c2ccccc12)C(=O)N[C@@H](CNC(=O)c1scc(S(=O)(=O)c2ccccc2)c1N)C(=O)O [L7]	2
N=C(N)NCCC[C@H](N)C(=O)N[C@@H](Cc1ccc(O)cc1)C(=O)N[C@@H](CNC(=O)C1c2ccccc2Oc2ccccc21)C(=O)O [L1]	14

---

# measured_target: hGH (Homo sapiens, UniProt P01241)
# Construct: made in house; host or cells: E. coli
# Sequence (P01241 27-217): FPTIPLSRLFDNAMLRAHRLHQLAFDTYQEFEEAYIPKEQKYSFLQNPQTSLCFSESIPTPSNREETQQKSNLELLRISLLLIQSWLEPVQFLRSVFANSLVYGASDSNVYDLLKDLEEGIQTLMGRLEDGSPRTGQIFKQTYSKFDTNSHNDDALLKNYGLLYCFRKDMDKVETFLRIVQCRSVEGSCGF
# assay_method_text: Resin selectivity test with hGH fermentation broth, judged by SDS page gels of the eluate
# assay_conditions: ligand on Fractogel Amino, hGH fermentation broth diluted five times with buffer A
readout: Observed selectivity

compound	value_measured
N=C(N)NCCC[C@H](N)C(=O)N[C@@H](Cc1ccccc1)C(=O)N[C@@H](CNC(=O)C1CC(=O)c2ccccc21)C(=O)O (stereo partly shown)	Good
N[C@@H](Cc1ccccc1)C(=O)N[C@@H](Cc1ccccc1)C(=O)N[C@@H](CNC(=O)c1c2c(nc3ccccc13)CCCC2)C(=O)O	Very good
C[C@@H](O)[C@H](NC(=O)[C@@H](N)CCCNC(=N)N)C(=O)N[C@@H](CNC(=O)c1c2c(nc3ccccc13)CCCC2)C(=O)O	Moderate
N[C@@H](Cc1ccccc1)C(=O)N[C@@H](Cc1ccccc1)C(=O)N[C@@H](CNC(=O)C1c2ccccc2Oc2ccccc21)C(=O)O	Good
CC[C@H](C)[C@H](N)C(=O)N[C@@H](Cc1ccccc1)C(=O)N[C@@H](CNC(=O)c1c2c(nc3ccccc13)CCCC2)C(=O)O	Very good
NCCCC[C@H](NC(=O)[C@@H](N)Cc1ccccc1)C(=O)N[C@@H](CNC(=O)c1scc(S(=O)(=O)c2ccccc2)c1N)C(=O)O	Moderate
CC[C@@H](C)[C@H](NC(=O)[C@@H](N)Cc1c[nH]c2ccccc12)C(=O)N[C@@H](CNC(=O)c1scc(S(=O)(=O)c2ccccc2)c1N)C(=O)O	Good
CC[C@H](C)[C@H](N)C(=O)N[C@@H](Cc1ccc(O)cc1)C(=O)N[C@@H](CNC(=O)c1scc(S(=O)(=O)c2ccccc2)c1N)C(=O)O	Moderate
CC[C@@H](C)[C@H](N)C(=O)N[C@@H](CCCCN)C(=O)N[C@@H](CNC(=O)c1c(C)nc2ccccn12)C(=O)O	Moderate
N=C(N)NCCC[C@H](N)C(=O)N[C@@H](Cc1ccc(O)cc1)C(=O)N[C@@H](CNC(=O)C1c2ccccc2Oc2ccccc21)C(=O)O	Moderate
NCCCC[C@H](N)C(=O)N[C@@H](Cc1ccccc1)C(=O)N[C@@H](CNC(=O)c1c2c(nc3ccccc13)CCCC2)C(=O)O	Good
O=C(NC[C@H](NC(=O)[C@H]1CCCN1C(=O)[C@H]1CCCN1)C(=O)O)c1c2c(nc3ccccc13)CCCC2	Good
Cc1nc2ccccn2c1C(=O)NC[C@H](NC(=O)[C@H](CCCNC(=N)N)NC(=O)[C@@H](N)Cc1ccccc1)C(=O)O	Good
N=C(N)NCCC[C@H](NC(=O)[C@@H](N)Cc1ccccc1)C(=O)N[C@@H](CNC(=O)C1c2ccccc2Oc2ccccc21)C(=O)O	Good
N[C@@H](Cc1ccc(O)cc1)C(=O)N[C@@H](Cc1ccccc1)C(=O)N[C@@H](CNC(=O)C1c2ccccc2Oc2ccccc21)C(=O)O	Moderate
Cc1nn(-c2ccccc2)nc1C(=O)NC[C@H](NC(=O)[C@H](Cc1ccccc1)NC(=O)[C@@H](N)Cc1c[nH]c2ccccc12)C(=O)O	Good

---

# measured_target: UniProt P01241
# assay_method_text: Binding capacity for wild type hGH of ligands synthesized on Fractogel Amino (1 mL columns)
# assay_conditions: ligand on Fractogel Amino; load 5 mg/mL hGH in 25 mM Tris-HCl pH 7.50, 0.5 mL/min; elution gradient 1M NaCl/25 mM Tris pH 7.5
readout: Measured binding capacity (mg hGH/mL resin)

compound	value_comparator	value_measured
O=C(NC[C@H](NC(=O)[C@H]1CCCN1C(=O)[C@H]1CCCN1)C(=O)O)c1c2c(nc3ccccc13)CCCC2	=	2
N[C@@H](Cc1ccccc1)C(=O)N[C@@H](Cc1ccccc1)C(=O)N[C@@H](CNC(=O)c1c2c(nc3ccccc13)CCCC2)C(=O)O	=	2
N=C(N)NCCC[C@H](N)C(=O)N[C@@H](Cc1ccccc1)C(=O)N[C@@H](CNC(=O)C1CC(=O)c2ccccc21)C(=O)O (some centres unmarked)	=	10
Cc1nc2ccccn2c1C(=O)NC[C@H](NC(=O)[C@H](CCCNC(=N)N)NC(=O)[C@@H](N)Cc1ccccc1)C(=O)O	>	5
Cc1ccc([N+](=O)[O-])c(C(=O)NCC(NC(=O)C(Cc2c[nH]cn2)NC(=O)C(N)CC(=O)O)C(=O)O)c1 (centres unmarked)	<	0.5

---

# measured_target: wild type hGH (Homo sapiens, UniProt P01241)
# Sequence (P01241 27-217): as above
# assay_method_text: Binding capacity for wild type hGH of ligands synthesized on Fractogel Amino (1 mL columns)
# assay_conditions: ligand on Fractogel Amino; load 5 mg/mL hGH in 25 mM Tris-HCl pH 7.50, 0.5 mL/min; elution gradient 1M NaCl/25 mM Tris pH 7.5
readout: Measured binding capacity (mg hGH/mL resin)

compound	measured_target	value_unit	value_comparator	value_measured
NCCCC[C@H](NC(=O)[C@@H](N)Cc1ccccc1)C(=O)N[C@@H](CNC(=O)c1scc(S(=O)(=O)c2ccccc2)c1N)C(=O)O	wild type hGH (Homo sapiens, UniProt P01241)	mg hGH/mL resin	=	13
CC[C@H](C)[C@H](N)C(=O)N[C@@H](Cc1ccccc1)C(=O)N[C@@H](CNC(=O)c1c2c(nc3ccccc13)CCCC2)C(=O)O	wild type hGH (Homo sapiens, UniProt P01241)	mg hGH/mL resin	=	3
N[C@@H](Cc1ccc(O)cc1)C(=O)N[C@@H](Cc1ccccc1)C(=O)N[C@@H](CNC(=O)C1c2ccccc2Oc2ccccc21)C(=O)O	wild type hGH (Homo sapiens, UniProt P01241)	mg hGH/mL resin	=	5
NCCCC[C@H](N)C(=O)N[C@@H](Cc1ccccc1)C(=O)N[C@@H](CNC(=O)c1c2c(nc3ccccc13)CCCC2)C(=O)O	wild type hGH (Homo sapiens, UniProt P01241)	mg hGH/mL resin	>	5
N=C(N)NCCC[C@H](NC(=O)[C@@H](N)Cc1ccccc1)C(=O)N[C@@H](CNC(=O)C1c2ccccc2Oc2ccccc21)C(=O)O	wild type hGH (Homo sapiens, UniProt P01241)	mg hGH/mL resin	=	7
CC(O)C(N)C(=O)NC(CC(=O)O)C(=O)NC(CNC(=O)c1ccc2nccnc2c1)C(=O)O (stereo not shown)	wild type hGH (Homo sapiens, UniProt P01241)	mg hGH/mL resin	<	0.5
C[C@@H](O)[C@H](NC(=O)[C@@H](N)CCCNC(=N)N)C(=O)N[C@@H](CNC(=O)c1c2c(nc3ccccc13)CCCC2)C(=O)O	wild type hGH (Homo sapiens, UniProt P01241)	mg hGH/mL resin	>	10
